# Test system: Saccharomyces cerevisiae growth inhibition, permissive control
# assay overview: yeast lifespan-shortening chemical project counter-assay, dose-response inhibition of growth under permissive conditions (AID 850);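 also: growth read as optical density after one day of incubation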
Calls of active or inactive are those of the source. No rule for the calls is given here.
API: response.call in active, inactive

Dear all, I need the recorded test outcome for Cc1cc(C(=O)COC(=O)c2ccc[nH]c2=O)c(C)n1-c1ccc(Br)cc1 , thank you.
inactive

Ok, now Cc1cccc(Nc2nc(-c3ccccn3)cs2)n1
active

Ok, now CC1CCCCN1S(=O)(=O)c1coc(C(N)=O)c1 (stereo unspecified)
inactive

Ok, now O=C(Nc1nc(-c2ccccn2)cs1)c1ncc(Cl)c(Cl)c1Cl
inactive

Ok, now O=[N+]([O-])c1ccc(N/N=C/c2ccc[nH]2)cc1
inactive

Ok, now CCOC(=O)c1c(NC(=S)Nc2ccc(Cl)cc2)sc2c1CCN(C)C2
active

====

# Test system: Saccharomyces cerevisiae growth inhibition, permissive control
# assay overview: yeast lifespan-shortening chemical project counter-assay, dose-response inhibition of growth under permissive conditions (AID 850);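 also: growth read as optical density after one day of incubation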
Activity calls are given as the source filed them. No rule for the calls is given here.
Field: IC50. Provide a value for each of the molecules that follow.

Missing value: IC50, Saccharomyces cerevisiae growth inhibition, permissive control, entry COc1ccccc1N1CCN(Cc2cc(Br)c(O)c3ncccc23)CC1 . Fill in?
12.7 µM

Ok, now Cc1ccccc1C(=O)NNC(=S)NC(=O)COc1ccccc1
26.5 µM

Ok, now COc1cc(Br)cc(/C=N/c2ncn[nH]2)c1O
18.3 µM

Ok, now O=c1c(-c2ccccc2)nc(-c2ccccc2)cn1O
22.9 µM

Ok, now CN1C(=O)C2(N=c3ccccc3=N2)c2ccccc21
> 100 µM (inactive)

Ok, now CCCn1c(Nc2nc3ccccc3n2C)nc2ccccc21
45.1 µM

====

# Tested on: Saccharomyces cerevisiae growth inhibition, permissive control
# assay overview: yeast lifespan-shortening chemical project counter-assay, dose-response inhibition of growth under permissive conditions (AID 850);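 also: growth read as optical density after one day of incubation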
Active and inactive are the calls of the source. No rule for the calls is given here.
API: response.call in label 1 for active, label 0 for inactive

Dear all, I need the recorded test outcome for CCCCCC/C(C)=C1/SC(=S)NC1=O , thank you.
label 0

Ok, now O=C1OCC(CO)(CO)N=C1NNc1ccc(Cl)c(Cl)c1
label 1

Ok, now Cc1cc(-c2n[nH]c(=S)n2/N=C/c2cc([N+](=O)[O-])ccc2Cl)n[nH]1
label 0

Ok, now c1cncc(-c2nnc(-c3cccnc3)nn2)c1
label 1

Ok, now CCOC(=O)c1cnc(-n2nc(C)cc2C)nc1NC1CCCCC1
label 1

Ok, now O=C(Nc1nc(-c2ccccn2)cs1)C1COc2ccccc2O1 (centres undefined)
label 1

Ok, now Cn1c(=O)c(C(=O)Nc2ncccn2)c(O)c2ccccc21
label 1

Ok, now COc1ccc(NC(=O)CC2SC(=Nc3ccccc3)NC2=O)c(OC)c1 (centres undefined)
label 0

Ok, now C/C(=N\Nc1ccc(Cl)c(Cl)c1)c1ccc(-n2ccnc2)cc1
label 1

Ok, now Cc1cc(O)c(/C=N/Nc2ccccc2)c(=O)o1
label 1

Ok, now CCN1CCN(c2ncnc3c2sc(=S)n3-c2ccccc2)CC1
label 0

Ok, now Oc1c(I)cc(Cl)c2cccnc12
label 1

Ok, now OCc1ccnc2c(O)cccc12
label 1

Ok, now CCOc1cc(/C=N/Nc2ccccc2Cl)ccc1OCC(=O)O
label 1

Ok, now COC(=O)Cn1c2ccccc2c2nc(C)sc21
label 0

Ok, now Cc1cc(Cl)ccc1N=c1ssnc1Cl
label 0

Ok, now COc1ccc(-c2nnc3sc(C(C)N4C(=O)c5ccccc5C4=O)nn23)cc1 (centres undefined)
label 0

Ok, now COc1ccc(CCNC(=O)c2cnn3c(C(F)F)cc(C)nc23)cc1OC
label 0

Ok, now Cc1cc(O)c(/C=N/Nc2ccccc2Cl)c(=O)o1
label 1

Ok, now CNC(=O)c1cc2c(ccc3ccccc32)oc1=N
label 1

Ok, now Clc1ccc(N=c2ssnc2Cl)cc1
label 1

Ok, now O=C(/C=C/c1ccccc1Cl)c1ccccc(=O)c1O
label 1

Ok, now O=c1cnn([C@@H]2O[C@H](CO)[C@@H](O)[C@H]2O)c(=O)[nH]1
label 1

Ok, now Nc1c(Cl)ncnc1N/N=C/c1ccccn1
label 1

Ok, now N/C(Cc1ccc(Cl)cc1)=N\OC(=O)C1CCCCC1
label 1

Ok, now Cc1[nH]n(-c2ccccc2)c(=O)c1/C=N/Nc1nncc(-c2ccccc2)n1
label 1

Ok, now Oc1cc(-c2ccccc2)c2ccccc2c1
label 1

Ok, now CC1(CCc2ccccc2)NC(=S)N(c2ccc(Cl)cc2)N1 (centres undefined)
label 1

Ok, now N/C(Cc1ccc(Cl)cc1)=N\OC(=O)c1cccc2ccccc12
label 1

Ok, now CCOC(=O)N1CCN(C(=O)Cn2nc(C)c3sc4ccccc4c3c2=O)CC1
label 0

Ok, now O=C1C(=O)c2c(C(=O)c3ccccc3)coc2-c2ccccc21
label 1

Ok, now Oc1c(Cl)cc(Cl)c(Cl)c1Cc1c(O)c(Cl)cc(Cl)c1Cl
label 0

Ok, now N#CC(c1cccc(Cl)c1)c1ccc2c(C(F)(F)F)cc(C(F)(F)F)nc2n1 (centres undefined)
label 0

Ok, now CC(C)(C)N/N=C/c1cc(Cl)cc([N+](=O)[O-])c1O
label 1

Ok, now CCc1cccc(CC)c1NC(=S)NCc1ccc2[nH]c(C)cc2c1
label 0

Ok, now Cc1cccc(OCCN2CSC(=S)N(C)C2)c1
label 1

Ok, now O=C1C2C3C=CC(CO)(O3)C2C(=O)N1c1ccccc1-c1ccccc1 (centres undefined)
label 0

Ok, now Cc1ccc(NN2C(=O)C=C(c3ccc(Cl)cc3)C2=O)cc1
label 1

Ok, now O=C(Oc1ccc(Cl)c2cccnc12)c1ccco1
label 1

Ok, now Cc1ccc(Nc2cc(C)nn2-c2nc(C)cc(=O)[nH]2)cc1
label 1

Ok, now O=C1c2cccc3cccc(c23)C(=O)N1c1cccnc1
label 0

Ok, now CCc1ccc(S(=O)(=O)NCCc2cn3ccsc3n2)s1
label 0

Ok, now Cc1cccc(NC(=O)CC2SC(=O)N(c3ccccc3)C2=O)c1 (centres undefined)
label 0

Ok, now O=C(O)CCSc1nnc(-c2ccccc2)n1-c1ccccc1
label 0

Ok, now NNC(=O)c1ccc(COc2ccc3c(c2)CCC3)o1
label 1

Ok, now c1ccc(-c2nc3nonc3nc2-c2ccccc2)cc1
label 0

Ok, now COc1cccc(CC(=O)Nc2ccc3nc(C)sc3c2)c1
label 1

Ok, now Cn1c(SCC(=O)N/N=C/c2ccc([N+](=O)[O-])s2)nnc1-c1ccc(Cl)cc1
label 1

Ok, now O/N=C/c1cc(Cl)ccc1OCc1cccc2ccccc12
label 0
